Target: human JAK1 (a.a. 837-1142)
Test: In vitro JAK kinase assay (HTRF, phosphorylation of a biotinylated peptide), JAK1
Type: biochemical
Details: ratio of JAK2 IC50 to JAK1 IC50, measured at 1 mM ATP
Method: Compounds herein were tested for inhibitory activity of JAK targets according to the following in vitro assay described in Park et al., Analytical Biochemistry 1999, 269, 94-104. […] The phosphorylated peptide was detected by homogenous time resolved fluorescence (HTRF). […] Binding to the Europium labeled antibody took place for 40 minutes and HTRF signal was measured on a Fusion plate reader (Perkin Elmer, Boston, Mass.).
assay_readout: IC50 Ratio JAK2/JAK1

# annotated cases, reported IC50 Ratio JAK2/JAK1 shown
| molecule | IC50 Ratio JAK2/JAK1 |
| --- | --- |
| N#CCC1(n2cc(-c3ncnc4[nH]ccc34)cn2)CN(C2CCN(C(=O)c3ncco3)CC2)C1 [Example 16] | 2.5 |
| N#CCC1(n2cc(-c3ncnc4[nH]ccc34)cn2)CN(C2CCN(C(=O)c3sc4cc(F)ccc4c3Cl)CC2)C1 [Example 91] | 1.7 |

(I) N#CCC1(n2cc(-c3ncnc4[nH]ccc34)cn2)CN(C2CCN(Cc3cc4ccccc4nc3Cl)CC2)C1 [Example 214]
(II) N#CCC1(n2cc(-c3ncnc4[nH]ccc34)cn2)CN(C2CCN(C(=O)C3CCC(c4ccc(Cl)cc4)CC3)CC2)C1 (stereo not shown) [Example 105]
(III) N#CCC1(n2cc(-c3ncnc4[nH]ccc34)cn2)CN(C2CCN(Cc3ccc(-c4conn4)cc3)CC2)C1 [Example 221]
(IV) N#CCC1(n2cc(-c3c(F)cnc4[nH]ccc34)cn2)CN(C2CCN(C(=O)c3ccnc(C(F)(F)F)c3F)CC2)C1 [Example 314]
(V) N#CCC1(n2cc(-c3ncnc4[nH]ccc34)cn2)CN(C2CCN(Cc3cc(C(F)(F)F)ccc3Cl)CC2)C1 [Example 211]
Req: # ascending order, key=IC50 Ratio JAK2/JAK1 Kindly provide the labels arranged according to the requested ordering.
Resp: III, I, V, II, IV
(III: 1.3, I: 2.5, V: 5.0, II: 7.2, IV: 11.0)

* * *

Parameter: IC50. Scope: all listed entries.
Biological target: human JAK1 (a.a. 837-1142) (Homo sapiens, UniProt P23458)

| compound | IC50 |
| --- | --- |
| N#CCC1(n2cc(-c3ncnc4[nH]ccc34)cn2)CN(C2CCN(C(=O)c3cnccn3)CC2)C1 [Example 14] | 5 to 20 nM |
| N#CCC1(n2cc(-c3ncnc4[nH]ccc34)cn2)CN(C2CCN(C(=O)c3cc(C(F)(F)F)ncc3F)CC2)C1 [Example 343] | 5 to 20 nM |

Okay, now this compound:
Req: Name the value of IC50 reported for N#CCC1(n2cc(-c3ncnc4[nH]ccc34)cn2)CN([C@@H]2CCN(C(=O)c3ccnc(C(F)(F)F)n3)C[C@@H]2F)C1 (relative stereo) [Example 362] when tested on human JAK1 (a.a. 837-1142) (Homo sapiens, UniProt P23458).
Resp: ≤ 5 nM

* * *

Molecular target: human JAK1 (a.a. 837-1142)
Assay: In vitro JAK kinase assay (HTRF, phosphorylation of a biotinylated peptide), JAK1
Format: biochemical
Conditions: ratio of JAK2 IC50 to JAK1 IC50, measured at 1 mM ATP
Description: Compounds herein were tested for inhibitory activity of JAK targets according to the following in vitro assay described in Park et al., Analytical Biochemistry 1999, 269, 94-104. […] The phosphorylated peptide was detected by homogenous time resolved fluorescence (HTRF). […] Binding to the Europium labeled antibody took place for 40 minutes and HTRF signal was measured on a Fusion plate reader (Perkin Elmer, Boston, Mass.).
assay_readout: IC50 Ratio JAK2/JAK1

| smiles_structure | result_value |
| --- | --- |
| N#CCC1(n2ccc(-c3ncnc4[nH]ccc34)c2)CN(C2CCN(C(=O)c3c(F)cc(C#N)cc3F)CC2)C1 | 6.6 |
| N#CCC1(n2ccc(-c3ncnc4[nH]ccc34)c2)CN(C2CCN(C(=O)c3nc(C(F)(F)F)cs3)CC2)C1 | 5.9 |
| Cn1cnc(S(=O)(=O)N2CCC(N3CC(CC#N)(n4cc(-c5ncnc6[nH]ccc56)cn4)C3)CC2)c1 | 5.0 |
| N#CCC1(n2cc(-c3ncnc4[nH]ccc34)cn2)CN(C2CCN(C(=O)c3cccc(F)c3F)CC2)C1 | 4.9 |
| N#CCC1(n2cc(-c3ccnc4[nH]ccc34)cn2)CN(C2CCN(C(=O)c3ccc(O)c(F)c3)CC2)C1 | 4.6 |

(P) N#CCC1(n2ccc(-c3ncnc4[nH]ccc34)c2)CN(C2CCN(C(=O)c3ccc(C(F)(F)F)cc3F)CC2)C1
(Q) N#CCC1(n2ccc(-c3ncnc4[nH]ccc34)c2)CN(C2CCN(C(=O)Nc3ccc(F)cc3C(F)(F)F)CC2)C1
Req: // task: argmin of IC50 Ratio JAK2/JAK1 over [ P , Q ] # reply format: chosen label
Resp: P
(P: 6.5, Q: 35.6)
